This collection of values is drawn from ChEMBL document CHEMBL1201862.

- system: UniProtKB Q6QLK5
- Sequence (Q6QLK5 whole entry, the tested form may be a part): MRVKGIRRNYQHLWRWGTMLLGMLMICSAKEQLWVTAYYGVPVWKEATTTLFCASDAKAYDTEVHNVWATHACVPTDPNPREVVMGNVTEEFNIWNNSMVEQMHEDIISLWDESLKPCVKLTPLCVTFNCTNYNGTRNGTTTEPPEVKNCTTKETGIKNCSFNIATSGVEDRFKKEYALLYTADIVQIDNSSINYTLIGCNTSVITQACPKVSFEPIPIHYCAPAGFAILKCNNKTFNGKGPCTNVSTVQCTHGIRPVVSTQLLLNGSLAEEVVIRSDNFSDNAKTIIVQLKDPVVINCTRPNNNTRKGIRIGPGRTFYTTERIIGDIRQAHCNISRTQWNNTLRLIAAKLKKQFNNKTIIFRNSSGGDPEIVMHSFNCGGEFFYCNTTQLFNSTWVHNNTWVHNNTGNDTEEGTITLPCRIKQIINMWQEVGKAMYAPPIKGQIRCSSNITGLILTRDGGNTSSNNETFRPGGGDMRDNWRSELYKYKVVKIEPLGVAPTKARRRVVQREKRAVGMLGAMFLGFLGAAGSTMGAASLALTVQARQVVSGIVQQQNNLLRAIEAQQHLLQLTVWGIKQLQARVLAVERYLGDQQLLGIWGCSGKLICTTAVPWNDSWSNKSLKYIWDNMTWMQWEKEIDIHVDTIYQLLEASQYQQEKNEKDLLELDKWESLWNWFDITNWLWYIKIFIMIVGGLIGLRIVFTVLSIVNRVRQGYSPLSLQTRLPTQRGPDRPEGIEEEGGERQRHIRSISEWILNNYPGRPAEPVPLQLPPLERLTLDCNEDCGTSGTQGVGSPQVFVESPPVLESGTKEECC
- experimentDescription: cell-free HIV fusion peptide-binding blockers – biochemical, uHTS, fluorescence dequenching, […] (AID 1986)
The source made the active and inactive calls. Cut-off read from the data, not from the text of the source: actives have a measured IC50 and inactives only a lower limit.
Listed molecules paired with reported IC50
measuredAttribute: IC50

{"structureNotation": "O=C(COc1ccc(Cl)cc1Cl)Nc1ccc(C(=O)Nc2ccccc2C(=O)O)cc1", "measuredAttribute": "IC50", "result": "9.54 µM (active)"}
{"structureNotation": "CCCCCC#CCC#CCC#CCC#CCCCC(=O)O", "measuredAttribute": "IC50", "result": "11.9 µM (active)"}
{"structureNotation": "COc1cc(NS(=O)(=O)c2ccc(NC(=S)NC(=O)c3sc4ccccc4c3Cl)cc2)nc(OC)n1", "measuredAttribute": "IC50", "result": "16.5 µM (active)"}
{"structureNotation": "CC(C)S(=O)(=O)C1=NSC2=NC(=O)/C(=C\\c3ccc(-c4cccc(C(=O)O)c4)o3)C(=N)N21", "measuredAttribute": "IC50", "result": "18.3 µM (active)"}
